Biological target: T1, soluble KIR3DL1*020-Fc (human, UniProt P43629 22-339)
T1 construct: also called KIR3DL1 allele 020; CD158e allele 020; not shown: Fc domain
T1 sequence (P43629 other isoform, or with tags, fused parts or gaps): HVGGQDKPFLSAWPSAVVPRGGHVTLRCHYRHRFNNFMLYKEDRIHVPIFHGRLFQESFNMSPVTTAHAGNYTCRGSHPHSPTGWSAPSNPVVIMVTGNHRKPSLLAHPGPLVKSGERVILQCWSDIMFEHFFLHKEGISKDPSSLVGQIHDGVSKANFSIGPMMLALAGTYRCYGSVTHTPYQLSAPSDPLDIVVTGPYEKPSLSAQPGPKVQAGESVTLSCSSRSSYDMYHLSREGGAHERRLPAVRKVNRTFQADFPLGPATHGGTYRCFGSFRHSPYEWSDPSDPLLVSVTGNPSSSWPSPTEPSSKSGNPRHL
Experiment: BLI (ForteBio QK), hIgG1
property: pKd
// pKd: -log10(molar conc.)

# binder, result_number
data = [
    ("ET160-73 (antibody, human IgG1, V domains shown, Tested as human IgG1 (hIgG1), kappa light chain) VH: QVQLVQSGAEVKKPGESLKISCKGSGYSFTSYWIGWVRQMPGKGLEWMGIIYPGDSDTRYSPSFQGQVTISADKSISTAYLQWSSLKASDTAMYYCARGREQLWLDGMDVWGQGTTVTVSS VL: DVVMTQSPLSLPVTLGQPASISCRSTQSLVHSDGNTYLNWFQQRPGQSPRRLIYGVSNRDFGVPDRFSASGSGTDFTLKINRVEAEDVGVYYCMQGTHWPLTFGQGTKVEIKR", 7.80),
]

Prompt line: So what does the record say about pKd for ET160-61 (antibody, human IgG1, V domains shown, Tested as human IgG1 (hIgG1), lambda light chain) VH: QVQLVESGGGLVQPGRSLRLSCAASGFTFDDYAMHWVRQAPGKGLEWVSGISWNSGSIGYADSVKGRFTISRDNAKNSLYLQMNSLRAEDTAVYYCASSLRYFEWPIDYWGQGTLVTVSS VL: NFMLTQPLSVSESPGKTVTISCTANGGSLASKYVQWFQQRPGSSPTTVIYDDNLRPSGVPDRFSGSIDTSSNSAALTISGLKTEDEADYYCQSYDNSSVVFGGGTKLTVLG ?
Response line: 7.71
